Source of measurements: the supplement of paper PMC6555819

Tested on: RXRa DBDmut IVT, anti-RXR (DBD mutation: RXRa K156A/R161A, NR concentration 90 nM)
Assay: PBM binding z-score (relative to random genomic background probes); higher = stronger binding; sequences stand for … in GC…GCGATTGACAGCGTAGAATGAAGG
property label: PBM binding z-score
Hey, just send me the number, nothing else.

// solved cases for PBM binding z-score follow
# item sequence, PBM binding z-score
data = [
    ("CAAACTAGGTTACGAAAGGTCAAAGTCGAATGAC", 1.6),
    ("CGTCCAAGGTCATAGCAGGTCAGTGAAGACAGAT", 3.91),
    ("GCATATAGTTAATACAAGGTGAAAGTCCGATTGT", 0.966),
    ("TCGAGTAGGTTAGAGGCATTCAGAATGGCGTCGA", -0.37),
    ("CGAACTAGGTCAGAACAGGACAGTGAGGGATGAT", 0.709),
]

Kindly consider the entry below.
What the record says about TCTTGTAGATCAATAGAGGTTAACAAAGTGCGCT : PBM binding z-score is 0.564
